test-target: GABAA receptor
test: [35S]-TBPS binding assay, rat brain cortical membranes, in the presence of GABA
measurement-setup: inhibition of 3 nM [35S]-TBPS binding, 5 mM GABA, 90 min, room temp
readout: IC50

compound=CC[C@]12CC[C@@](C)(O)C[C@H]1CC[C@H]1[C@@H]3CCC[C@H](CNS(=O)(=O)c4ccccc4)[C@@]3(C)CC[C@@H]12 reported_measurement="100 to 1000 nM"
compound=COC[C@@]1(O)CC[C@H]2[C@H](CC[C@@H]3[C@@H]2CC[C@]2(C)[C@@H]([C@@H](C)Cn4cc(C#N)cn4)CCC[C@@H]32)C1 reported_measurement="< 100 nM"
compound=C[C@@H](Cn1cc(C#N)cn1)[C@H]1CC[C@H]2[C@@H]3CC=C4CC[C@](C)(O)CC[C@]4(C)[C@H]3CC[C@]12C reported_measurement="< 100 nM"
compound=C[C@@]1(O)CC[C@H]2[C@H](CC[C@@H]3[C@@H]2CC[C@]2(C)[C@@H](CNC(=O)c4cccnc4)CCC[C@@H]32)C1 reported_measurement="100 to 1000 nM"
compound="COC[C@@]1(O)CC[C@@H]2C3CC[C@]4(C)[C@@H]([C@H](C)NC(=O)c5ccc(C#N)cc5)CCC[C@H]4[C@@H]3CC[C@@H]2C1 (some centres unmarked)" reported_measurement="100 to 1000 nM"
